Recorded values, source paper PMC12155096.

target: CYP3A4 (Homo sapiens, UniProt P08684); experiment: biochemical; details: CYP3A4 AC50 (half-maximal activity concentration)
Sequence (P08684 whole entry): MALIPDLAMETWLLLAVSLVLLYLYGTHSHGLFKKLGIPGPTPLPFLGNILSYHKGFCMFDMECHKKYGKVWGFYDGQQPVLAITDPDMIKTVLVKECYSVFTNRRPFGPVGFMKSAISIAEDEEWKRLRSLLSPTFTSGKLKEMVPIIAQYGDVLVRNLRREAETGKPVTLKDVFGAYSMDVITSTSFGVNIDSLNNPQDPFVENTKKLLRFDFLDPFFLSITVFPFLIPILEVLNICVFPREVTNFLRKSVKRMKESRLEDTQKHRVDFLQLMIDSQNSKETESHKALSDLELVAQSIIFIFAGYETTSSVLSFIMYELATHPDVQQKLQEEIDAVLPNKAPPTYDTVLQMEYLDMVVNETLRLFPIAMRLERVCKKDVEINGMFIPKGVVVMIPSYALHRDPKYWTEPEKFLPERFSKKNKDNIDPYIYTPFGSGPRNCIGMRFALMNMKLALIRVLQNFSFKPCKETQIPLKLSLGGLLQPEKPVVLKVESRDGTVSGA
Where a name gives a salt, the structure may show the parent alone.
OBSERVATION_TYPE: log10 AC50 (log10 of the value in µM)
Field: value | Transform: log10 | Quantity: AC50 | Unit: µM

Observe how each entry below is paired with its result.
>>> endpoint_value("CCCCC(CC)COP(=O)(O)OCC(CC)CCCC (stereo not shown) [Bis(2-ethylhexyl) phosphate]")
1.58
>>> endpoint_value("CCCCCCC(C=O)=Cc1ccccc1")
0.89
>>> endpoint_value("CCNc1nc(NCC)nc(SC)n1")
1.66

q: Quote log10 AC50 reported for O=C(NC1CCN(CCc2c[nH]c3ccccc23)CC1)c1ccccc1 [Indoramin hydrochloride] please.
a: 1.19

q: Quote log10 AC50 reported for C#CC(C)N(C)C(=O)Nc1ccc(Cl)cc1 (stereo not shown) please.
a: 0.97

q: Quote log10 AC50 reported for CCOC(=O)C(C)Oc1ccc(Oc2cnc3cc(Cl)ccc3n2)cc1 (stereo not shown) please.
a: 1.09

q: Quote log10 AC50 reported for CNC(=O)Oc1cc(C)cc(C(C)C)c1 please.
a: 1.40

q: Quote log10 AC50 reported for CCC(C)c1cc([N+](=O)[O-])cc([N+](=O)[O-])c1O (stereo not shown) please.
a: 1.53

q: Quote log10 AC50 reported for O=C(O)C(c1ccc(Cl)cc1)c1ccc(Cl)cc1 please.
a: 1.84

q: Quote log10 AC50 reported for Cc1cccc(C)c1NC(=O)CN1CCN(CCCC(c2ccc(F)cc2)c2ccc(F)cc2)CC1 please.
a: 0.35

----------
Parameter CYP2C9 Efficacy (in parenthesis): see the listing below.
target: UniProt:P11712; settings: human
Sequence (P11712 whole entry): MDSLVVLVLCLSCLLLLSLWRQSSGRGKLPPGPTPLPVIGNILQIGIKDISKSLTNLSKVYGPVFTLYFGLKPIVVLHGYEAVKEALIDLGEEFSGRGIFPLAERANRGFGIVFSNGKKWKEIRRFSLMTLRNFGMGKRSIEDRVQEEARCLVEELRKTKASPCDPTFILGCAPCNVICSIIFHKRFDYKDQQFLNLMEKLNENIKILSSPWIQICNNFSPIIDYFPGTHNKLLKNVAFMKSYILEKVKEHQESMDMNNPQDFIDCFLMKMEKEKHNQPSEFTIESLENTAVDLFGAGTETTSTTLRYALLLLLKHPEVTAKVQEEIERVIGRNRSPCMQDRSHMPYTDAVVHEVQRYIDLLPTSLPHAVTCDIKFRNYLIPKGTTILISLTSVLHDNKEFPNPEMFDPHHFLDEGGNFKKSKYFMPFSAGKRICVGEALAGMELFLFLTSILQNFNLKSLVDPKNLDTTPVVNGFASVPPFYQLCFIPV

q: Quote CYP2C9 Efficacy (in parenthesis) reported for c1ccc(-c2ccc(C(c3ccccc3)n3ccnc3)cc2)cc1 (stereo not drawn) [Bifonazole] please.
a: 0.25 ± 0.05 (-104 ± 3) %

q: Quote CYP2C9 Efficacy (in parenthesis) reported for CC(C)[N+](C)(CCC(C(N)=O)(c1ccccc1)c1ccccc1)C(C)C [Isopropamide] please.
a: 33.31 ± 14 (-72 ± 28) %

q: Quote CYP2C9 Efficacy (in parenthesis) reported for C=CCOC(=O)C(C)(C)OC(=O)c1cc(-n2c(=O)cc(C(F)(F)F)n(C)c2=O)ccc1Cl [Butafenacil] please.
a: 23.68 ± 7.01 (-109 ± 17) %

q: Quote CYP2C9 Efficacy (in parenthesis) reported for O=C1c2ccccc2C(=O)C1C(=O)C(c1ccccc1)c1ccccc1 [Diphacinone] please.
a: 0.53 ± 0.74 (-101 ± 4) %

q: Quote CYP2C9 Efficacy (in parenthesis) reported for Clc1ccc(C(c2ccccc2Cl)C(Cl)(Cl)Cl)cc1 (stereo not drawn) [o,p'-DDT] please.
a: 10.87 ± 3.7 (-95 ± 6) %

q: Quote CYP2C9 Efficacy (in parenthesis) reported for Fc1ccc(Oc2ccnc3cc(Cl)cc(Cl)c23)cc1 [Quinoxyfen] please.
a: 23.18 ± 7.46 (-103 ± 2) %

q: Quote CYP2C9 Efficacy (in parenthesis) reported for Clc1ccc(C(c2ccc(Cl)cc2)C(Cl)Cl)cc1 [p,p'-DDD] please.
a: 5.55 ± 0.76 (-100 ± 3) %

q: Quote CYP2C9 Efficacy (in parenthesis) reported for O=[N+]([O-])c1c2ccccc2cc2ccccc12 [9-Nitroanthracene] please.
a: 13.51 ± 1.21 (-86 ± 11) %

q: Quote CYP2C9 Efficacy (in parenthesis) reported for C=CC(=O)OCC(CO)(COC(=O)C=C)COC(=O)C=C [Pentaerythritol triacrylate] please.
a: 13.25 ± 1.87 (-108 ± 2) %
